- Test system: field corn (Zea mays L., var. Dekalb 535, CORN)
- assay-overview: Post-emerge test, crop safety
- Format: in vivo
- protocol-conditions: post-emerge, 63 g ai/ha, 14 days after application, rating scale 0-100
Hi, to clarify the labels: rule met covers phytotoxicity rating CORN from 10 upward, rule not met covers anything below 10.

Decide: phytotoxicity rating CORN of COc1c(Cl)cc(F)c(-n2c(=O)cc(C(F)(F)F)n(C)c2=O)c1NC(=O)c1cccc(F)c1F >= 10?
rule met

Cool, now COc1c(Cl)cc(F)c(-n2c(=O)cc(C(F)(F)F)n(C)c2=O)c1NC(=O)CC#N
rule met

Cool, now COc1c(Cl)cc(F)c(-n2c(=O)cc(C(F)(F)F)n(C)c2=O)c1NC(=O)c1cccc(Cl)c1
rule met

Cool, now COc1c(Cl)cc(F)c(-n2c(=O)cc(C(F)(F)F)n(C)c2=O)c1NC(=O)COc1ccccc1
rule met

Cool, now COc1c(Cl)cc(F)c(-n2c(=O)cc(C(F)(F)F)n(C)c2=O)c1NC(=O)c1cc([N+](=O)[O-])cc([N+](=O)[O-])c1
rule not met

Cool, now COc1c(Cl)cc(F)c(-n2c(=O)cc(C(F)(F)F)n(C)c2=O)c1NC(=O)c1ccc(F)c(F)c1
rule met

Cool, now COc1ccc(C(=O)Nc2c(OC)c(Cl)cc(F)c2-n2c(=O)cc(C(F)(F)F)n(C)c2=O)cc1
rule met

Cool, now Cn1c(C(F)(F)F)cc(=O)n(-c2c(F)cc(Cl)c(OCC#N)c2N(C(=O)c2ccc(F)cc2F)C(=O)c2ccc(F)cc2F)c1=O
rule not met

Cool, now COc1c(Cl)cc(F)c(-n2c(=O)cc(C(F)(F)F)n(C)c2=O)c1NC(=O)c1ccc2c(c1)OCO2
rule met

Cool, now COc1c(Cl)cc(F)c(-n2c(=O)cc(C(F)(F)F)n(C)c2=O)c1N(C(=O)c1ccc(Cl)nc1)C(=O)c1ccc(Cl)nc1
rule met

Cool, now COc1c(Cl)cc(F)c(-n2c(=O)cc(C(F)(F)F)n(N)c2=O)c1NC(=O)c1ccc(F)cc1F
rule not met

Cool, now COc1c(Cl)cc(F)c(-n2c(=O)cc(C(F)(F)F)n(C)c2=O)c1N(C(=O)c1ccc(C(F)(F)F)cc1)C(=O)c1ccc(C(F)(F)F)cc1
rule met

Cool, now COc1c(Cl)cc(F)c(-n2c(=O)cc(C(F)(F)F)n(C)c2=O)c1N(C(=O)c1ccc(F)c(F)c1)C(=O)c1ccc(F)c(F)c1
rule not met

Cool, now Cc1c(Cl)cc(F)c(-n2c(=O)cc(C(F)(F)F)n(C)c2=O)c1NC(=O)C=Cc1ccccc1
rule met

Cool, now COc1c(Cl)cc(F)c(-n2c(=O)cc(C(F)(F)F)n(C)c2=O)c1NC(=O)c1ccc(F)cc1
rule met

Cool, now COc1c(Cl)cc(F)c(-n2c(=O)cc(C(F)(F)F)n(C)c2=O)c1NC(=O)COC(C)=O
rule not met

Cool, now COc1c(Cl)cc(F)c(-n2c(=O)cc(C(F)(F)F)n(C)c2=O)c1NC(=O)c1cnc2ccccc2n1
rule not met

Cool, now COc1c(Cl)cc(F)c(-n2c(=O)cc(C(F)(F)F)n(C)c2=O)c1NC(=O)c1ccc(Br)cc1
rule met

Cool, now COc1c(Cl)cc(F)c(-n2c(=O)cc(C(F)(F)F)n(C)c2=O)c1NC(=O)c1ccc(OC(F)(F)F)cc1
rule not met

Cool, now COc1c(Cl)cc(F)c(-n2c(=O)cc(C(F)(F)F)n(C)c2=O)c1NC(=O)C=Cc1ccccc1
rule met

Cool, now COc1c(Cl)cc(F)c(-n2c(=O)cc(C(F)(F)F)n(C)c2=O)c1NC(=O)c1ccc(-c2ccccc2)cc1
rule not met

Cool, now COc1c(Cl)cc(F)c(-n2c(=O)cc(C(F)(F)F)n(C)c2=O)c1N(C(=O)c1ccc([N+](=O)[O-])cc1)C(=O)c1ccc([N+](=O)[O-])cc1
rule not met

Cool, now COc1c(Cl)cc(F)c(-n2c(=S)cc(C(F)(F)F)n(C)c2=O)c1NC(=S)c1ccc(F)cc1F
rule not met
